- Tested on: Alternaria brassicicola
- method-summary: Anti-fungal bioassay (primary screening)
- Format: cell-based
- Parameters: key: 0 = no effect; 1 = partial growth inhibition; 2 = strong inhibition
- settings: protease-cleaved fusion protein samples, scored after 18 to 48 hours
Can you tell me Antifungal score, Alternaria brassicicola for the items I'm about to list?
One number for each entry.

Record excerpt, results attached:
- molecule: "Kis6: Kistrin polypeptide of SEQ ID NO: 7 from Arabidopsis thaliana, predicted mature region, recombinantly expressed in E. coli as cleaved MBP fusion (protein, listed as Arabidopsis thaliana, PEPTIDE (0)...(0) Kis6 mature peptide) GYAKKIDCGSACVARCRLSRRPRLCHRACGTCCYRCNCVPPGTYGNYDKCQCYASLTTHGGRRKCP"
  recorded-number: 0
- molecule: "Kis10: Kistrin polypeptide of SEQ ID NO: 10 from Petunia x hybrida, predicted mature region, recombinantly expressed in E. coli as cleaved MBP fusion (protein, Petunia x hybrida; PEPTIDE (0)...(0) Kis10 mature peptide) GSLKPSQCLPQCTRRCSQTQYHNACMLFCQKCCNKCLCVPPGFYGNKGVCPCYNNWKTKEGGPKCP"
  recorded-number: 0
- molecule: "Kis5: Kistrin polypeptide of SEQ ID NO: 4 from Picea mariana (black spruce), predicted mature region, recombinantly expressed in E. coli as cleaved MBP fusion (protein, listed as Picea mariana, PEPTIDE (0)...(0) Kis5 mature peptide) GSLRPSECGQRCSYRCSATSHKKPCMFFCQKCCAKCLCVPPGTFGNKQVCPCYNNWKTQQGGPKCP"
  recorded-number: 0

Could you now consider this next molecule?
Give the measured Antifungal score, Alternaria brassicicola of Kis2: Kistrin polypeptide of SEQ ID NO: 1 from Arabidopsis thaliana, predicted mature region, recombinantly expressed in E. coli as cleaved MBP fusion (protein, listed as Arabidopsis thaliana, PEPTIDE (0)...(0) Kis2 mature peptide) GKLKPQQCNSKCSFRCSATSHKKPCMFFCLKCCKKCLCVPPGTFGNKQTCPCYNNWKTKEGRPKCP .
0
